tested on: Black Bean Aphid [Aphis fabae (Scop.)]; assay: Direct spray assay on black bean aphid; format: in vivo; conditions: % by weight in acetone-water, mortality after 3 days
Exercise: state measured Approximate LD50, BBA (black bean aphid) for each of the compounds provided.

Required: Approximate LD50, BBA (black bean aphid), one value per compound below.
1. CCOP(=O)(OCC)SCC(=O)Nc1csc(NC(=O)CSP(=O)(OCC)OCC)n1 [Compound 8]
2. COP(=S)(OC)SCC(=O)Nc1nc(NC(=O)CSP(=S)(OC)OC)c(-c2ccccc2)s1 [Compound 9]
3. COP(=S)(OC)SCC(=O)Nc1csc(NC(=O)CSP(=S)(OC)OC)n1 [Compound 2]
4. CCOP(=S)(OCC)SCC(=O)Nc1csc(NC(=O)CSP(=S)(OCC)OCC)n1 [Compound 1]

[".001%", ".2%", ".002%", ".05%"]

---

system: Cabbage Looper [Trichoplusia ni (Hubner)]; test: Cabbage looper leaf dip test; type: in vivo; conditions: % by weight in solution, larvae, 48 hours plus 5 days if survivors
Exercise: state measured Approximate LD50, CL (cabbage looper) for each of the compounds provided.

Below: 3 compounds and their reported Approximate LD50, CL (cabbage looper).
CCOP(=O)(OCC)SCC(=O)Nc1csc(NC(=O)CSP(=O)(OCC)OCC)n1 ... > .1%
COP(=S)(OC)SCC(=O)Nc1csc(NC(=O)CSP(=S)(OC)OC)n1 ... > .1%
COP(=S)(OC)SCC(=O)Nc1nc(NC(=O)CSP(=S)(OC)OC)c(-c2ccccc2)s1 ... > .5%

Could you now look at the following compound, please?
Could you please provide reported Approximate LD50, CL (cabbage looper) for CCOP(=S)(OCC)SCC(=O)Nc1csc(NC(=O)CSP(=S)(OCC)OCC)n1 ? Thanks!
> .1%

---

system: Two-Spotted Mite [Tetranychus urticae (Koch)]; experiment: Two-spotted mite plant dip test; assay type: in vivo; conditions: eggs; tested at primary screening level 0.05% only; < means more than 50% kill, > less than 50% kill; 7 days
value.kind: Approximate LD50, 2SM (two-spotted mite) (2) eggs

Below: 3 molecules and their reported Approximate LD50, 2SM (two-spotted mite) (2) eggs.
CCOP(=O)(OCC)SCC(=O)Nc1csc(NC(=O)CSP(=O)(OCC)OCC)n1 [Compound 8] ... < .05%
CCOP(=S)(OCC)SCC(=O)Nc1csc(NC(=O)CSP(=S)(OCC)OCC)n1 [Compound 1] ... < .05%
COP(=S)(OC)SCC(=O)Nc1csc(NC(=O)CSP(=S)(OC)OC)n1 [Compound 2] ... > .05%

Could you now look at the following molecule, please?
Could you please provide reported Approximate LD50, 2SM (two-spotted mite) (2) eggs for COP(=S)(OC)SCC(=O)Nc1nc(NC(=O)CSP(=S)(OC)OC)c(-c2ccccc2)s1 [Compound 9] ? Thanks!
< .05%
